assay: Solubility test, equilibrium method, UV-visible spectrophotometry; type: physicochemical; settings: aqueous with cosolvent or surfactant or cyclodextrin, thermodynamic from solid
QUANTITY NAME: solubility (µg/mL)
Give the value in µg/mL but do not write µg/mL after it.

Endpoint output: solubility of `CCc1c2c(nc3ccc(OC(=O)OCCOCCOCc4cn([C@H]5O[C@@H](CO)[C@H](O)[C@@H](O)[C@@H]5O)nn4)cc13)-c1cc3c(c(=O)n1C2)COC(=O)[C@]3(O)CC` . Value?
650

Endpoint output: solubility of `CCc1c2c(nc3ccc(OC(=O)OCCOCc4cn(CCO[C@H]5O[C@@H](CO)[C@H](O)[C@@H](O)[C@@H]5O)nn4)cc13)-c1cc3c(c(=O)n1C2)COC(=O)[C@]3(O)CC` . Value?
2180

Endpoint output: solubility of `CCc1c2c(nc3ccc(OC(=O)OCCOCCOCCOCc4cn([C@H]5O[C@@H](CO)[C@H](O)[C@@H](O)[C@@H]5O)nn4)cc13)-c1cc3c(c(=O)n1C2)COC(=O)[C@]3(O)CC` . Value?
320

----------
system: HCT-116; assay: Cytotoxicity test (MTT, 72 h); details: Homo sapiens, HCT-116, 72 h, read-out: 50% Inhibiting Concentration value (IC50)
The reader will find reported IC50 values listed item by item below.
Give the value in µM but do not write µM after it.

These recorded examples may help you get a feel for the data.
INSERT INTO results (item_smiles, tested_target, quantity_name, reading_unit, experimental_value) VALUES
  ('CCc1c2c(nc3ccc(OC(=O)NCCCOCc4cn([C@H]5O[C@@H](CO)[C@H](O)[C@@H](O)[C@@H]5O)nn4)cc13)-c1cc3c(c(=O)n1C2)COC(=O)[C@]3(O)CC', 'HCT-116', 'IC50', 'µM', 5.15),
  ('CCc1c2c(nc3ccc(OC(=O)OCCOCCOCCOCCOCc4cn([C@H]5O[C@@H](CO)[C@H](O)[C@@H](O)[C@@H]5O)nn4)cc13)-c1cc3c(c(=O)n1C2)COC(=O)[C@]3(O)CC', 'HCT-116', 'IC50', 'µM', 3.01),
  ('CCc1c2c(nc3ccc(OC(=O)OCCOCCOCCOCCOCc4cn(CCO[C@H]5O[C@@H](CO)[C@H](O)[C@@H](O)[C@@H]5O)nn4)cc13)-c1cc3c(c(=O)n1C2)COC(=O)[C@]3(O)CC', 'HCT-116', 'IC50', 'µM', 1.67);

Which measured IC50 belongs to `CCc1c2c(nc3ccc(OC(=O)NCCCOCc4cn(CCO[C@H]5O[C@@H](CO)[C@H](O)[C@@H](O)[C@@H]5O)nn4)cc13)-c1cc3c(c(=O)n1C2)COC(=O)[C@]3(O)CC` , tested on HCT-116?
7.24

----------
system: HCT-116; assay: Cytotoxicity test (MTT, 72 h); settings: Homo sapiens, HCT-116, 72 h, read-out: 50% Inhibiting Concentration value (IC50)
The reader will find reported IC50 values listed item by item below.
Give the value in nM but do not write nM after it.

These recorded examples may help you get a feel for the data.
INSERT INTO assay_data (molecule, experimental_value) VALUES
  ('CCc1c2c(nc3ccc(OC(=O)NCCOCc4cn([C@H]5O[C@@H](CO)[C@H](O)[C@@H](O)[C@@H]5O)nn4)cc13)-c1cc3c(c(=O)n1C2)COC(=O)[C@]3(O)CC [Compound 66]', 843),
  ('CCc1c2c(nc3ccc(OC(=O)NCCOCc4cn(CCO[C@H]5O[C@@H](CO)[C@H](O)[C@@H](O)[C@@H]5O)nn4)cc13)-c1cc3c(c(=O)n1C2)COC(=O)[C@]3(O)CC [Compound 67]', 235);

Endpoint output: IC50 of CCc1c2c(nc3ccc(OC(=O)OCCOCc4cn([C@H]5O[C@@H](CO)[C@H](O)[C@@H](O)[C@@H]5O)nn4)cc13)-c1cc3c(c(=O)n1C2)COC(=O)[C@]3(O)CC [Compound 37] . Value?
2340

----------
system: HCT-116; test: Cytotoxicity test (MTT, 72 h); details: Homo sapiens, HCT-116, 72 h, read-out: 50% Inhibiting Concentration value (IC50)
Counter-ions that a name gives are not always drawn.
Classification by IC50 follows these ranges: low (below 900 nM), mid (900 nM to below 2000 nM), high (2000 nM or more)

INSERT INTO measurements (compound, assigned_label) VALUES
  ('CCc1c2c(nc3ccc(OC(=O)OCCOCCOCc4cn(CCO[C@H]5O[C@@H](CO)[C@H](O)[C@@H](O)[C@@H]5O)nn4)cc13)-c1cc3c(c(=O)n1C2)COC(=O)[C@]3(O)CC', 'mid'),
  ('CCc1c2c(nc3ccc(OC(=O)NCCOCCOCc4cn(CCO[C@H]5O[C@@H](CO)[C@H](O)[C@@H](O)[C@@H]5O)nn4)cc13)-c1cc3c(c(=O)n1C2)COC(=O)C3(O)CC (stereo partly shown)', 'high'),
  ('CCc1c2c(nc3ccc(OC(=O)OCCOCc4cn(CCO[C@H]5O[C@@H](CO)[C@H](O)[C@@H](O)[C@@H]5O)nn4)cc13)-c1cc3c(c(=O)n1C2)COC(=O)[C@]3(O)CC', 'low'),
  ('CCc1c2c(nc3ccc(OC(=O)N4CCC(N5CCCCC5)CC4)cc13)-c1cc3c(c(=O)n1C2)COC(=O)[C@]3(O)CC [CPT-11, Irinotecan hydrochloride, reference compound]', 'high'),
  ('CCc1c2c(nc3ccc(OC(=O)NCCCCCOCc4cn([C@H]5O[C@@H](CO)[C@H](O)[C@@H](O)[C@@H]5O)nn4)cc13)-c1cc3c(c(=O)n1C2)COC(=O)[C@]3(O)CC', 'mid');

State the class of the compound shown: `CCc1c2c(nc3ccc(OC(=O)OCCOCCOCCOCc4cn([C@H]5O[C@@H](CO)[C@H](O)[C@@H](O)[C@@H]5O)nn4)cc13)-c1cc3c(c(=O)n1C2)COC(=O)[C@]3(O)CC`
low

State the class of the compound shown: `CCc1c2c(nc3ccc(OC(=O)NCCCCCOCc4cn(CCO[C@H]5O[C@@H](CO)[C@H](O)[C@@H](O)[C@@H]5O)nn4)cc13)-c1cc3c(c(=O)n1C2)COC(=O)[C@]3(O)CC`
high

State the class of the compound shown: `CCc1c2c(nc3ccc(OC(=O)OCCOCCOCc4cn([C@H]5O[C@@H](CO)[C@H](O)[C@@H](O)[C@@H]5O)nn4)cc13)-c1cc3c(c(=O)n1C2)COC(=O)[C@]3(O)CC`
low

----------
The reader will find reported IC50 values listed item by item below.
tested on: SW-480; test: Cytotoxicity test (MTT, 72 h); conditions: Homo sapiens, SW480, 72 h, read-out: 50% Inhibiting Concentration value (IC50)
Structures can show the parent of a compound that is named as a salt.
Give the value in nM but do not write nM after it.

INSERT INTO assay_data (molecule, quantity_name, experimental_value) VALUES
  ('CCc1c2c(nc3ccc(OC(=O)N4CCC(N5CCCCC5)CC4)cc13)-c1cc3c(c(=O)n1C2)COC(=O)[C@]3(O)CC [CPT-11, Irinotecan hydrochloride, reference compound]', 'IC50', 7380),
  ('CCc1c2c(nc3ccc(OC(=O)NCCOCCOCc4cn(CCO[C@H]5O[C@@H](CO)[C@H](O)[C@@H](O)[C@@H]5O)nn4)cc13)-c1cc3c(c(=O)n1C2)COC(=O)C3(O)CC (stereo partly shown)', 'IC50', 2060),
  ('CCc1c2c(nc3ccc(OC(=O)OCCOCCOCCOCc4cn(CCO[C@H]5O[C@@H](CO)[C@H](O)[C@@H](O)[C@@H]5O)nn4)cc13)-c1cc3c(c(=O)n1C2)COC(=O)[C@]3(O)CC', 'IC50', 254);

Then there is this molecule:
Endpoint output: IC50 of `CCc1c2c(nc3ccc(OC(=O)NCCOCc4cn([C@H]5O[C@@H](CO)[C@H](O)[C@@H](O)[C@@H]5O)nn4)cc13)-c1cc3c(c(=O)n1C2)COC(=O)[C@]3(O)CC` . Value?
216

----------
tested on: SW-480; assay: Cytotoxicity test (MTT, 72 h); settings: Homo sapiens, SW480, 72 h, read-out: 50% Inhibiting Concentration value (IC50)
The reader will find reported pIC50 values listed item by item below.
Please note pIC50 is a logarithmic value: minus log10 of concentration in mol/L. Answer with that number alone.

INSERT INTO measurements (molecule, experimental_value) VALUES
  ('CCc1c2c(nc3ccc(OC(=O)OCCOCCOCc4cn(CCO[C@H]5O[C@@H](CO)[C@H](O)[C@@H](O)[C@@H]5O)nn4)cc13)-c1cc3c(c(=O)n1C2)COC(=O)[C@]3(O)CC [Compound 57]', 6.79),
  ('CCc1c2c(nc3ccc(OC(=O)NCCOCCOCc4cn([C@H]5O[C@@H](CO)[C@H](O)[C@@H](O)[C@@H]5O)nn4)cc13)-c1cc3c(c(=O)n1C2)COC(=O)[C@]3(O)CC [Compound 73]', 6.06);

Then there is this molecule:
Endpoint output: pIC50 of CCc1c2c(nc3ccc(OC(=O)NCCCOCc4cn([C@H]5O[C@@H](CO)[C@H](O)[C@@H](O)[C@@H]5O)nn4)cc13)-c1cc3c(c(=O)n1C2)COC(=O)[C@]3(O)CC [Compound 80] . Value?
5.85
